- System: OVCAR-3 ovarian
- Test Name: NCI tumour cell line growth inhibition, 48 h
// reported TGI for each item listed
Answer with a number only, understood to be in µM.

Reference set, count: 4
O=C(O[C@H]1CN[C@H](C#Cc2cc3ncnc(Nc4ccc(Cc5ccccc5)cc4)c3s2)C1)N1CCOCC1; 11
COc1cccc2c3cccc(OC)c3c3[nH]cnc3c12; 31.7
COC(=O)C(=C\Sc1ccccc1)/C=C/C(=O)OC(C)(C)C; 17
CCN(CC)CCC(=O)c1ccc(Oc2ccc(C)cc2)cc1; 32.4

# evaluate next
# TGI (molecule: CCC1(O)C(=O)OCc2c1cc1n(c2=O)Cc2c-1nc1ccccc1c2OC (stereo not given) ) is 5.85

----------
// reported TGI for each item listed
- Tested on: NCI-H460 lung
- Test Name: NCI tumour cell line growth inhibition, 48 h

Reference set, count: 5
CCCCCCCCCCCCCCCCCC(=O)[O][Sn]([CH2]CCC)([CH2]CCC)[CH2]CCC; 0.251 µM
C[C@]1(O)CC(=O)c2c(c(-c3ccc4cc5c(c(O)c4c3O)C(=O)C[C@@](C)(O)C5)c3cccc(O)c3c2O)C1; 11.3 µM
O=C1OCC2=C1C(c1ccccc1)c1cc3c(cc1N2CCO)CCC3 (stereo not given); 3.51 µM
C/C(=N\N=C(\N)OB(F)F)c1ccccn1; > 100 µM
O=C(O)C(F)(OC(F)(F)C(F)(F)C(F)(F)F)C(F)(F)F (stereo not given); > 100 µM

# TGI (compound: "O=C(O)c1cnccc1-c1cc(=O)[nH]n1-c1ccccc1" ) is > 100 µM

# TGI (compound: "COc1ccc(Nc2nc(NCc3ccccc3)c3ccccc3n2)cc1" ) is 12.6 µM

# TGI (compound: "Fc1cc(C2=C[C@H](c3ccc4c(c3)OCO4)NC(=S)N2)c(Cl)cc1Cl" ) is > 100 µM

# TGI (compound: "Cc1cc2c(cc1Cl)SC(NN(C)C)=NS2(=O)=O" ) is > 10 µM

# TGI (compound: "S=C(Nc1ccc(-c2nc3ccccc3s2)cc1)Nc1ccccn1" ) is > 100 µM

# TGI (compound: "O=P(O)(O)OP(=O)(O)O" ) is > 100 µM

# TGI (compound: "Cc1cc(C)nc(NC(=S)Nc2cccc(Cl)c2)c1" ) is > 100 µM

----------
- System: CCRF-CEM leukemia
- Test Name: NCI tumour cell line growth inhibition, 48 h
// reported TGI for each item listed

Reference set, count: 5
CC(C)(C)OC(=O)N1C[C@H](CC(=O)OCc2ccccc2)C[C@H]1C(=O)OCC(Cl)(Cl)Cl; > 50 µM
CCCCCCOC(=O)C(N)Cc1ccc(OC)cc1 (stereo unspecified); > 100 µM
C[C@]1(O)CC(=O)c2c(c(-c3ccc4cc5c(c(O)c4c3O)C(=O)C[C@@](C)(O)C5)c3cccc(O)c3c2O)C1; > 100 µM
CNC(=S)NNC(=O)c1c(C)nc2sccn12; > 100 µM
NC1=NN(c2ccccc2)C(=O)C1C(=O)C(=O)NC1C2CC3CC(C2)CC1C3 (stereo unspecified); > 100 µM

Form field TGI for item N#Cc1cc2c(n(C3OC(CO)C(O)C(O)C3O)c1=S)CCCCC2 (stereo unspecified) on CCRF-CEM leukemia: > 100 µM
